- ASSAYED TARGET: human CCR5 (Homo sapiens, UniProt P51681)
- Sequence (P51681 whole entry): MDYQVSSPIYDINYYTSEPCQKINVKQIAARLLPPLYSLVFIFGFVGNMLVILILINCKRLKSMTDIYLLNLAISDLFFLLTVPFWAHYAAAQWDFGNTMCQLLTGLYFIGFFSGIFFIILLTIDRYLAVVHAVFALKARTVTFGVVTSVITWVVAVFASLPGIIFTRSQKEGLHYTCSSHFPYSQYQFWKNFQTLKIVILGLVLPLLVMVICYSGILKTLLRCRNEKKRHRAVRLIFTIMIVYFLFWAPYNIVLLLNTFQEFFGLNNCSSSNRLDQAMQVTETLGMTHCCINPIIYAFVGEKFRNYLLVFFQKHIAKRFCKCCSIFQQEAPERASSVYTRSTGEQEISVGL
- EXPERIMENTAL DETAILS: Inhibition test on the binding of RANTES to CCR5 (RANTES-induced transient increase of Ca ion)
- CONDITION CONTEXT: human CCR5 stably over-expressing CHO cell; recombinant human RANTES 10 nM; intracellular Ca2+ transient increase
pIC50: −log10 of the molar value.
MEASURE: pIC50

(a) CCCCN1C(=O)[C@@H]([C@H](O)C(C)C)NC(=O)C12CCN(Cc1ccc(Oc3ccccc3)nc1)CC2 [Example 2]
(b) CCCCN1C(=O)[C@H]([C@@H](O)C(C)C)NC(=O)C12CCN(Cc1ccc(Oc3ccccc3)nc1)CC2 [Example 3]
Compare a and b and name the one whose reported pIC50 is smaller. Answer with the label corresponding to your selection.
b
